Experiment: Liver microsome stability assay (HLM)
Type: in vitro ADME
Conditions: human, microsomes, pH 7.4; 3 μM test compound, NADPH; read-out: T½ in HLM
measured-property: half-life

Field: example entries. Status: answers known.
compound	half-life
C=C(C)[C@@H]1CCC(C)=C[C@H]1c1c(O)cc(CCCCC)cc1OC(=O)OCCCOP(=O)(O)O.N.N [29b]	19 min
C=C(C)[C@@H]1CCC(C)=C[C@H]1c1c(O)cc(CCCCC)cc1OC(=O)C1(OP(=O)(O)OCCCCCC)CC1.N [14d]	32 min
C=C(C)[C@@H]1CCC(C)=C[C@H]1c1c(O)cc(CCCCC)cc1OC(=O)C1(OP(=O)(O)OCCOC)CC1.N [14i]	19 min

Q: Retrieve half-life measured for C=C(C)[C@@H]1CCC(C)=C[C@H]1c1c(O)cc(CCCCC)cc1OC(=O)C1(OP(=O)(O)OCCCCCCCCCC)CC1.N [14g] and print it.
A: > 30 min
